- measurement.target: Cholesteryl ester transfer protein (Homo sapiens, UniProt P11597)
- experiment.summary: Inhibition of human plasma derived CETP
experimental.readout: IC50

Completed entries (count: 2):
Using the record for OC(CN1c2cccc(-c3cccc(OC(F)(F)F)c3)c2CCC1c1cccc(C(F)(F)F)c1)C(F)(F)F (stereo in doubt; 48) , report its IC50.
0.143 µM

Check CC(C)c1cccc(-c2cccc3c2CCC(c2cccc(OC(F)(F)C(F)F)c2)N3CC(O)C(F)(F)F)c1 (single isomer, unassigned; diastereomer 1) too.
0.277 µM

Now look at this one.
Using the record for O[C@H](CN1c2cccc(-c3cccc(OC(F)(F)F)c3)c2CC[C@@H]1c1cccc(OC(F)(F)F)c1)C(F)(F)F [TETRAHYDROQUINOLINE B] , report its IC50.
> 3 µM

###

- experiment.summary: Tmax in Sprague-Dawley rat at 10 mg/kg, po
- Assay type: ADME, organism-based
- Parameters: dose 10 mg/kg, route oral
- protocol.conditions: in vivo
experimental.readout: Tmax (h)
Give bare numbers, in h.

Using the record for O[C@@H](CN1c2cccc(-c3cccc(OC(F)(F)F)c3)c2CC[C@@H]1c1cccc(OC(F)(F)F)c1)C(F)(F)F [TETRAHYDROQUINOLINE A] , report its Tmax.
6

###

- experiment.summary: Cmax in Sprague-Dawley rat at 10 mg/kg, po
- Type: ADME, organism-based
- Design: dose 10 mg/kg, route oral
- protocol.conditions: in vivo
experimental.readout: Cmax (µg/mL)
Numbers only, in µg/mL.

Using the record for O[C@@H](CN1c2cccc(-c3cccc(OC(F)(F)F)c3)c2CC[C@@H]1c1cccc(OC(F)(F)F)c1)C(F)(F)F [TETRAHYDROQUINOLINE A] , report its Cmax.
0.95

###

- measurement.target: Cholesteryl ester transfer protein (Homo sapiens)
- experiment.summary: Inhibition of human plasma derived CETP relative to control
- Parameters: concentration or dose not given beside the values
- protocol.conditions: concentration not given here
experimental.readout: inhibition (%)
Answers are plain numbers, in %.

Using the record for OC(CN1c2cccc(-c3cccc(Cl)c3)c2CCC1c1cccc(OC(F)(F)C(F)F)c1)C(F)(F)F (single isomer, unassigned; diastereomer 2) , report its inhibition.
55

Check OC(CN1c2cccc(-c3cccs3)c2CCC1c1cccc(OC(F)(F)C(F)F)c1)C(F)(F)F (single isomer, unassigned; diastereomer 1) too.
63

Now look at this one.
Using the record for OC(CN1c2cccc(-c3cccc(OC(F)(F)F)c3)c2CCC1c1cccc(C(F)(F)F)c1)C(F)(F)F (single isomer, unassigned; diastereomer 2) , report its inhibition.
37

###

- experiment.summary: AUC in Sprague-Dawley rat at 2 mg/kg, iv
- Assay type: ADME, organism-based
- Design: dose 2 mg/kg, route intravenous
- protocol.conditions: plasma
experimental.readout: AUC (ng·h/mL)
Give bare numbers, in ng·h/mL.

Using the record for O[C@@H](CN1c2cccc(-c3cccc(OC(F)(F)F)c3)c2CC[C@@H]1c1cccc(OC(F)(F)F)c1)C(F)(F)F [TETRAHYDROQUINOLINE A] , report its AUC.
18900

###

Give measured inhibition for each item. Keep answers brief.
- measurement.target: Cholesteryl ester transfer protein (Homo sapiens)
- Sequence (whole entry): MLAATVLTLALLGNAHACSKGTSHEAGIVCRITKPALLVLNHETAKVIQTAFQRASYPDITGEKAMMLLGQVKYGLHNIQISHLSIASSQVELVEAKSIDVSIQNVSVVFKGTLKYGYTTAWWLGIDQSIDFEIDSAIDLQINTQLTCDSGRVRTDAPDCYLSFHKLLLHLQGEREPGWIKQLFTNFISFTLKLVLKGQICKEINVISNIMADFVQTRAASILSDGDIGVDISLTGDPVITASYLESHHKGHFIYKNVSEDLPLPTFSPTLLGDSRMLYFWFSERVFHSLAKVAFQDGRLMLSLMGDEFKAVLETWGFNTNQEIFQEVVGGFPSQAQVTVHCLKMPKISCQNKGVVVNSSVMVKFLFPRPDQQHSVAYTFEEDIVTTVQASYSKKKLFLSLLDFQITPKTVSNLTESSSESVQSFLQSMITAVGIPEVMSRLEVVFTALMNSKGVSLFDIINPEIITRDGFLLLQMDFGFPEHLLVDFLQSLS
- experiment.summary: Inhibition of human plasma derived CETP relative to control
- Design: concentration or dose not given beside the values
- protocol.conditions: concentration not given here
Give bare numbers, in %.

Completed entries (count: 10):
Using the record for OC(CN1c2cccc(-c3cccc(OC(F)(F)F)c3)c2CCC1C1CCCCC1)C(F)(F)F (single isomer, unassigned; diastereomer 1) , report its inhibition.
11

Check `O[C@@H](CN1c2cccc(-c3cccc(OC(F)(F)F)c3)c2CC[C@H]1c1cccc(OC(F)(F)F)c1)C(F)(F)F` too.
20

Check CC(C)c1cccc(-c2cccc3c2CCC(c2cccc(OC(F)(F)C(F)F)c2)N3CC(O)C(F)(F)F)c1 (single isomer, unassigned; diastereomer 1) too.
63

Check OC(CN1c2cccc(-c3cccc(OC(F)(F)F)c3)c2CCC1c1cccc(C(F)(F)F)c1)C(F)(F)F (stereo in doubt; 48) too.
50

Check OC(CN1c2cccc(-c3cccc(OC(F)(F)F)c3)c2CCC1C1CCCCC1)C(F)(F)F (single isomer, unassigned; form 1) too.
2

Check OC(CCl)CN1c2cccc(-c3cccc(OC(F)(F)F)c3)c2CCC1c1cccc(OC(F)(F)F)c1 (single isomer, unassigned; diastereomer 2) too.
0

Check OC(CN1c2cccc(-c3cccc(OC(F)(F)F)c3)c2CCC1c1ccc(OC(F)(F)C(F)F)cc1)C(F)(F)F (stereo in doubt; 41) too.
14

Check OC(CN1c2cccc(-c3cccc(F)c3)c2CCC1c1cccc(OC(F)(F)C(F)F)c1)C(F)(F)F (single isomer, unassigned; diastereomer 2) too.
52

Check N#Cc1cccc(-c2cccc3c2CCC(c2cccc(OC(F)(F)C(F)F)c2)N3CC(O)C(F)(F)F)c1 (single isomer, unassigned; diastereomer 1) too.
85

Check O[C@@H](CN1c2cccc(-c3cccc(OC(F)(F)F)c3)c2CC[C@@H]1c1cccc(OC(F)(F)F)c1)C(F)(F)F [TETRAHYDROQUINOLINE A] too.
85

I have 2 molecules here; please give me inhibition for each one.
1. OC(CCl)CN1c2cccc(-c3cccc(OC(F)(F)F)c3)c2CCC1c1cccc(OC(F)(F)F)c1 (single isomer, unassigned; diastereomer 1)
2. OC(CN1c2cccc(-c3cccc(OC(F)(F)F)c3)c2CCC1c1cccc(OC(F)(F)C(F)F)c1)C(F)(F)F (single isomer, unassigned; 39)

[56, 0]

###

- experiment.summary: AUC in Sprague-Dawley rat at 10 mg/kg, po
- Format: ADME, organism-based
- Design: dose 10 mg/kg, route oral
- protocol.conditions: plasma
experimental.readout: AUC

Using the record for O[C@@H](CN1c2cccc(-c3cccc(OC(F)(F)F)c3)c2CC[C@@H]1c1cccc(OC(F)(F)F)c1)C(F)(F)F [TETRAHYDROQUINOLINE A] , report its AUC.
31300 ng·h/mL

###

Give measured inhibition for each item. Keep answers brief.
- measurement.target: Cholesteryl ester transfer protein (Homo sapiens) (UniProt P11597)
- Sequence (whole entry): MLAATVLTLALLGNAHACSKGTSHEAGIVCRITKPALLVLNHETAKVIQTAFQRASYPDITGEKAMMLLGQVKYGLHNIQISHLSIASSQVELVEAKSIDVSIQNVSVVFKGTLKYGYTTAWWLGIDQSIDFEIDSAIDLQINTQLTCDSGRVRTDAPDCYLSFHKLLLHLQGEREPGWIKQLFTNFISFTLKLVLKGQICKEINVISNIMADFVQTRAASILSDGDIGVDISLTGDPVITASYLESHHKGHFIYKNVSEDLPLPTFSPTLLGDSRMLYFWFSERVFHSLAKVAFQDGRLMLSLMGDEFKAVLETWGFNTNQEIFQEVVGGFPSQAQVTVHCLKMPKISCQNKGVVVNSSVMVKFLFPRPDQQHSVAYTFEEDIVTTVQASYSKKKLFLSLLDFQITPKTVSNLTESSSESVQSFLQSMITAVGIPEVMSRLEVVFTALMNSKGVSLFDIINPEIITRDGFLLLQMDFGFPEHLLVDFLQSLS
- experiment.summary: Inhibition of human plasma derived CETP relative to control
- Parameters: concentration or dose not given beside the values
- protocol.conditions: concentration not given here
Answers are plain numbers, in %.

Using the record for OC(CN1c2cccc(-c3cccnc3)c2CCC1c1cccc(OC(F)(F)C(F)F)c1)C(F)(F)F (single isomer, unassigned; diastereomer 1) , report its inhibition.
47

Check OC(CN1c2cccc(-c3cccc(OC(F)(F)F)c3)c2CCC1c1cccs1)C(F)(F)F (single isomer, unassigned; diastereomer 2) too.
12

Check `C[C@@H](O)CN1c2cccc(-c3cccc(OC(F)(F)F)c3)c2CC[C@@H]1c1cccc(OC(F)(F)F)c1` too.
68

Check CC(C)C(O)CN1c2cccc(-c3cccc(OC(F)(F)F)c3)c2CCC1c1cccc(OC(F)(F)F)c1 (single isomer, unassigned; form 1) too.
79

Check CCc1cc(Oc2cccc3c2CCC(c2cccc(OC(F)(F)C(F)F)c2)N3CC(O)C(F)(F)F)ccc1Cl (single isomer, unassigned; diastereomer 1) too.
62

I have 7 compounds here; please give me inhibition for each one.
1. OC(CN1c2cccc(-c3cccc(OC(F)(F)F)c3)c2CCC1c1cccc(OC(F)(F)C(F)F)c1)C(F)(F)F (single isomer, unassigned; 38)
2. CCc1cc(Oc2cccc3c2CCC(c2cccc(OC(F)(F)C(F)F)c2)N3CC(O)C(F)(F)F)ccc1Cl (single isomer, unassigned; diastereomer 2)
3. CCC1CCc2c(-c3cccc(OC(F)(F)F)c3)cccc2N1CC(O)C(F)(F)F (single isomer, unassigned; diastereomer 1)
4. COc1cccc(-c2cccc3c2CCC(c2cccc(OC(F)(F)C(F)F)c2)N3CC(O)C(F)(F)F)c1 (single isomer, unassigned; diastereomer 1)
5. CC(C)C(O)CN1c2cccc(-c3cccc(OC(F)(F)F)c3)c2CCC1c1cccc(OC(F)(F)F)c1 (single isomer, unassigned; form 2)
6. COc1cccc(-c2cccc3c2CCC(c2cccc(OC(F)(F)C(F)F)c2)N3CC(O)C(F)(F)F)c1 (single isomer, unassigned; diastereomer 2)
7. N#Cc1cccc(-c2cccc3c2CCC(c2cccc(OC(F)(F)C(F)F)c2)N3CC(O)C(F)(F)F)c1 (single isomer, unassigned; diastereomer 2)

1: 9; 2: 86; 3: 44; 4: 68; 5: 0; 6: 38; 7: 21
